Biological target: H3 histaminergic receptor (Homo sapiens)
Sequence (Q9Y5N1 whole entry): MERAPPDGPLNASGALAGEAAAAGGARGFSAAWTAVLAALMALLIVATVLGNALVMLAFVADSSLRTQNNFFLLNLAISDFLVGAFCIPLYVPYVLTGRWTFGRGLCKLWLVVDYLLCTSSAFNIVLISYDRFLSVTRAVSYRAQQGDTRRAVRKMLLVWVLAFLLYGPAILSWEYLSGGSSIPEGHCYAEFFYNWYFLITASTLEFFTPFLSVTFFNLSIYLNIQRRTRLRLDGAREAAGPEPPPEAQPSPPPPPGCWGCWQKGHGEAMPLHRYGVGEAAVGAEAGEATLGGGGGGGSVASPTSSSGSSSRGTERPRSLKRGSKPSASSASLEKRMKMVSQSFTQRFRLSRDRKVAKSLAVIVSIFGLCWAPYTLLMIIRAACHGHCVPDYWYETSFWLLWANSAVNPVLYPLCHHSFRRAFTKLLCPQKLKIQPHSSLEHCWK
Assay: PDSP radioligand binding, H3
Settings: read-out: % inhibition at 10 µM; single concentration 10 µM
READOUT LABEL: inhibition at 10 µM (%)
Please reply with the bare figure in % and do not write the unit itself.

{"columns": ["SMILES STRUCTURE", "ENDPOINT VALUE"],
 "data": [
  ["O[C@@H]1[C@H](O)[C@@H]2C[C@@H]2[C@H]1n1cnc2c(NCc3cccc(Cl)c3)ncnc21", 0]
]}

Any idea what its inhibition at 10 µM is? The compound is Fc1ccc(C#Cc2nc(NCc3cccc(Cl)c3)c3nc[nH]c3n2)cc1F 0

Quick one: CNC(=O)[C@@]12C[C@@H]1[C@@H](n1cnc3c(NCc4cccc(Cl)c4)nc(C#Cc4ccc(F)cc4)nc31)[C@H](O)[C@@H]2O 0

----------
Biological target: UniProt P28566
Sequence (P28566 whole entry): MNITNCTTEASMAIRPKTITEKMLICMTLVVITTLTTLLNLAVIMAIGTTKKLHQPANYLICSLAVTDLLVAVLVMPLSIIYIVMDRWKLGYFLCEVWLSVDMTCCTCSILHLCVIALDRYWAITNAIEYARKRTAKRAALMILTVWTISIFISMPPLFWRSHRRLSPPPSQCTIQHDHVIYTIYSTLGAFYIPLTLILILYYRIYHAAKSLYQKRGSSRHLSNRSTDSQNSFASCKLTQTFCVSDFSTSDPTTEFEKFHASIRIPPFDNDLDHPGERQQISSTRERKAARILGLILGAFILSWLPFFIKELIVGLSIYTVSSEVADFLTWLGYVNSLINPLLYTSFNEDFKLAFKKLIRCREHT
Experiment: PDSP radioligand binding, 5HT1E
Settings: read-out: % inhibition at 10 µM; single concentration 10 µM
Catalogue of inhibition at 10 µM values
Please reply with the bare figure in % and do not write the unit itself.

Examples with their reported inhibition at 10 µM follow.
{"columns": ["SMILES STRUCTURE", "UNIT OF MEASURE", "inhibition at 10 µM"],
 "data": [
  ["O[C@@H]1[C@H](O)[C@@H]2C[C@@H]2[C@H]1n1cnc2c(NCc3cccc(Cl)c3)nc(C#Cc3ccc(F)c(F)c3)nc21", "%", 0],
  ["CNC(=O)[C@@]12C[C@@H]1[C@@H](n1cnc3c(NCc4cccc(Cl)c4)nc(C#Cc4ccccc4Cl)nc31)[C@H](O)[C@@H]2O", "%", 0],
  ["O[C@@H]1[C@H](O)[C@@H]2C[C@@H]2[C@H]1n1cnc2c(NCc3cccc(Cl)c3)ncnc21", "%", 0],
  ["CNC(=O)[C@@]12C[C@@H]1[C@@H](n1cnc3c(NCc4cccc(Cl)c4)nc(C#Cc4ccc(F)cc4)nc31)[C@H](O)[C@@H]2O", "%", 0],
  ["O[C@@H]1[C@H](O)[C@@H]2C[C@@H]2[C@H]1n1cnc2c(NC(C3CC3)C3CC3)nc(Cl)nc21", "%", 3],
  ["Clc1cccc(CNc2nc(Cl)nc3[nH]cnc23)c1", "%", 0]
]}

Any idea what its inhibition at 10 µM is? The molecule is Fc1ccc(C#Cc2nc(NCc3cccc(Cl)c3)c3nc[nH]c3n2)cc1F 0

Quick one: CNC(=O)[C@@]12C[C@@H]1[C@@H](n1cnc3c(NC)nc(C#Cc4ccc(F)c(F)c4)nc31)[C@H](O)[C@@H]2O 9

Quick one: CNC(=O)[C@@]12C[C@@H]1[C@@H](n1cnc3c(NCc4cccc(Cl)c4)nc(Cl)nc31)[C@H](O)[C@@H]2O 0

----------
Catalogue of inhibition at 10 µM values
Biological target: σ2 receptor (Rattus norvegicus, UniProt Q5U3Y7)
Sequence (Q5U3Y7 1-176): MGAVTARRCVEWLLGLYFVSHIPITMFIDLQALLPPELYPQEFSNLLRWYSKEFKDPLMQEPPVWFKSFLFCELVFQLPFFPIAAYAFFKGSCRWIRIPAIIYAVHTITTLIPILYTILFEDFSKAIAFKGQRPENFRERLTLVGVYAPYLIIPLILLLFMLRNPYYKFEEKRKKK
Test: PDSP radioligand binding, σ2
Conditions: read-out: % inhibition at 10 µM; single concentration 10 µM
Please reply with the bare figure in % and do not write the unit itself.

Any idea what its inhibition at 10 µM is? The molecule is Clc1cccc(CNc2nc(Cl)nc3[nH]cnc23)c1 0
